pIC50: −log10 of the molar value.
Please consider the recorded pIC50 for MMP-3 (stromelysin) (Homo sapiens) in what follows.

MOLECULE	ASSAYED TARGET	pIC50
O=C(O)CCC(=NO)c1ccc(-c2ccc(Cl)cc2)cc1	MMP-3 (stromelysin) (Homo sapiens)	6.92
O=C(O)CCC(O)c1ccc(-c2ccc(Cl)cc2)cc1 (racemic)	MMP-3 (stromelysin) (Homo sapiens)	6.55
CN(C)N=C(CCC(=O)O)c1ccc(-c2ccc(Cl)cc2)cc1	MMP-3 (stromelysin) (Homo sapiens)	6.03
O=C(Cc1ccccc1)N[C@@H](CC(=O)c1ccc2oc3ccccc3c2c1)C(=O)O	MMP-3 (stromelysin) (Homo sapiens)	6.48
O=C(O)CCC(=NO)c1ccc(-c2ccc(Br)cc2)cc1	MMP-3 (stromelysin) (Homo sapiens)	6.96
CC(C)CC(CC(=O)NO)C(=O)N[C@@H](CC(C)C)C(=O)N[C@@H](Cc1ccccc1)C(N)=O (stereo partly drawn) [Compound U24522, reference compound]	MMP-3 (stromelysin) (Homo sapiens)	7.70
